System: human progesterone receptor (hPR)
Assay: human progesterone receptor binding assay (displacement of 3H R5020 promegestone)
Measured Metric: hPR % inh 10 μM (%)

O=C(NCC(c1ccc(I)cc1)C(c1ccccc1)c1ccccc1)c1ccc(Cl)c(Cl)c1 (centres unmarked) :: 50
O=C(Cc1ccc([N+](=O)[O-])cc1)NCC(c1ccc(C(F)(F)F)cc1)C(c1ccccc1)c1ccccc1 (centres unmarked) :: 34
COc1cccc(CC(=O)NCC(c2ccc(I)cc2)C(c2ccccc2)c2ccccc2)c1 (centres unmarked) :: 45
Cc1ccc(C(=O)NCC(c2ccc(I)cc2)C(c2ccccc2)c2ccccc2)s1 (centres unmarked) :: 57
COc1cccc(C(=O)NCC(c2ccc(I)cc2)C(c2ccccc2)c2ccccc2)c1 (centres unmarked) :: 15

(A) O=C(NCC(c1ccc(I)cc1)C(c1ccccc1)c1ccccc1)c1ccc(Cl)cc1 (centres unmarked)
(B) O=C(Cc1cc(C(F)(F)F)cc(C(F)(F)F)c1)NCC(c1ccc(C(F)(F)F)cc1)C(c1ccccc1)c1ccccc1 (centres unmarked)
-- ask Dear colleague, could you let me know whether A or B has the lower recorded hPR % inh 10 μM? Thanks. Respond with the label that goes with your answer.
-- reply B

(P) COc1ccccc1CC(=O)NCC(c1ccc(I)cc1)C(c1ccccc1)c1ccccc1 (centres unmarked)
(Q) Cc1c(CC(=O)NCC(c2ccc(C(F)(F)F)cc2)C(c2ccccc2)c2ccccc2)sc2ccc(Cl)cc12 (centres unmarked)
-- ask Dear colleague, could you let me know whether P or Q has the lower recorded hPR % inh 10 μM? Thanks. Respond with the label that goes with your answer.
-- reply Q
(Q: 16%, P: 32%)

(I) COc1ccc(CC(=O)NCC(c2ccc(I)cc2)C(c2ccccc2)c2ccccc2)cc1 (centres unmarked)
(II) O=C(Cc1ccc(F)cc1)NCC(c1ccc(I)cc1)C(c1ccccc1)c1ccccc1 (centres unmarked)
-- ask I need your help: which of the pair I , II has higher hPR % inh 10 μM? Respond with the label that goes with your answer.
-- reply II

(P) Cc1ccc(CC(=O)NCC(c2ccc(C(F)(F)F)cc2)C(c2ccccc2)c2ccccc2)cc1 (centres unmarked)
(Q) COc1cc(CC(=O)NCC(c2ccc(I)cc2)C(c2ccccc2)c2ccccc2)cc(OC)c1 (centres unmarked)
(R) O=C(Cc1ccc2ccccc2c1)NCC(c1ccc(C(F)(F)F)cc1)C(c1ccccc1)c1ccccc1 (centres unmarked)
-- ask Put the entries in order of hPR % inh 10 μM, starting with the largest number. // rank by listing labels in the order requested
-- reply P, Q, R
(P: 41%, Q: 25%, R: 10%)

(1) O=C(Cc1ccccc1F)NCC(c1ccc(I)cc1)C(c1ccccc1)c1ccccc1 (centres unmarked)
(2) O=C(Cc1cc(C(F)(F)F)cc(C(F)(F)F)c1)NCC(c1ccc(I)cc1)C(c1ccccc1)c1ccccc1 (centres unmarked)
(3) O=C(NCC(c1ccc(C(F)(F)F)cc1)C(c1ccccc1)c1ccccc1)c1cc(C(F)(F)F)cc(C(F)(F)F)c1 (centres unmarked)
-- ask Rank ascending by hPR % inh 10 μM. // rank by listing labels in the order requested
-- reply 3, 1, 2
(3: 10%, 1: 40%, 2: 63%)

(I) COc1ccccc1C(=O)NCC(c1ccc(I)cc1)C(c1ccccc1)c1ccccc1 (centres unmarked)
(II) O=C(NCC(c1ccc(I)cc1)C(c1ccccc1)c1ccccc1)c1ccc(F)cc1 (centres unmarked)
(III) CN(C)c1ccc(C=CC(=O)NCC(c2ccc(C(F)(F)F)cc2)C(c2ccccc2)c2ccccc2)cc1 (centres unmarked)
(IV) O=C(Cc1ccc(-c2ccccc2)cc1)NCC(c1ccc(C(F)(F)F)cc1)C(c1ccccc1)c1ccccc1 (centres unmarked)
-- ask Put the entries in order of hPR % inh 10 μM, starting with the largest number. // rank by listing labels in the order requested
-- reply II, I, IV, III
(II: 68%, I: 41%, IV: 19%, III: 12%)

(A) COc1cc(OC)cc(C(=O)NCC(c2ccc(I)cc2)C(c2ccccc2)c2ccccc2)c1 (centres unmarked)
(B) CN(C)c1ccc(CC(=O)NCC(c2ccc(C(F)(F)F)cc2)C(c2ccccc2)c2ccccc2)cc1 (centres unmarked)
(C) O=C(NCC(c1ccc(I)cc1)C(c1ccccc1)c1ccccc1)c1ccccc1F (centres unmarked)
-- ask Put the entries in order of hPR % inh 10 μM, starting with the largest number. // rank by listing labels in the order requested
-- reply C, A, B
(C: 65%, A: 42%, B: 29%)

(I) O=C(Cc1ccc(Cl)c(Cl)c1)NCC(c1ccc(I)cc1)C(c1ccccc1)c1ccccc1 (centres unmarked)
(II) O=C(Cc1ccc(Cl)cc1)NCC(c1ccc(I)cc1)C(c1ccccc1)c1ccccc1 (centres unmarked)
-- ask I need your help: which of the pair I , II has higher hPR % inh 10 μM? Respond with the label that goes with your answer.
-- reply I
(I: 44%, II: 30%)
